target: Human immunodeficiency virus type 1 reverse transcriptase (Human immunodeficiency virus 1, UniProt Q72547)
Form field: IC50 (one value per entry).

Example compounds with recorded IC50:
Given the compound "O=C(O)c1nc(-c2ccc(Cl)cc2)[nH]c(=O)c1O" , what is its reported IC50?
23 µM

Same again, this time with "O=C(O)c1nc(-c2cccc(O)c2)nc(O)c1O"
> 100 µM

Same thing, different compound: "O=C(O)c1nc(-c2ccccc2)nc(O)c1O"
> 100 µM

// moving on: another record for IC50
Which IC50 is reported for this compound? "O=C(O)c1nc(-c2cccc(OCc3ccccc3)c2)[nH]c(=O)c1O"
> 100 µM

###

biological target: RNA-directed RNA polymerase (Hepacivirus hominis, UniProt O39930); assay: Inhibitory concentration required to inhibit HCV RNA dependent RNA polymerase Nonstructural protein 5B in the presence of Mn2+ is determined
Sequence (O39930 whole entry): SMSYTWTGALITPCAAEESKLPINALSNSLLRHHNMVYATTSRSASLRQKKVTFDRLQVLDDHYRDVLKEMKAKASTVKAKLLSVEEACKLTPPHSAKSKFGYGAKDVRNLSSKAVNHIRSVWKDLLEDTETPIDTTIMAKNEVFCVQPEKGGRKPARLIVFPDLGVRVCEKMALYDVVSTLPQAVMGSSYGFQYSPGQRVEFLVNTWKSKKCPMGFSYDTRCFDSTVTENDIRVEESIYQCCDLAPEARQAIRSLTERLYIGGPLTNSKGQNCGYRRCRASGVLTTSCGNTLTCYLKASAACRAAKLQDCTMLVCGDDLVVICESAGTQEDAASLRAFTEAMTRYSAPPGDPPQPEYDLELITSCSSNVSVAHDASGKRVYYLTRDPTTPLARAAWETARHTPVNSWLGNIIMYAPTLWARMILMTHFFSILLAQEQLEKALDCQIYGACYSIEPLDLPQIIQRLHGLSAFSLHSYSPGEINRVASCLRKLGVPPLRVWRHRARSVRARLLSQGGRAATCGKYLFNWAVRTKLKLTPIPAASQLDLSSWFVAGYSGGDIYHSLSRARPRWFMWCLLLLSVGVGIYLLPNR
Item-by-item account of IC50
State the answer as a number, implicitly in nM.

Please give the measured IC50 for this compound: "O=C(O)c1nc(-c2ccc(Cl)cc2)[nH]c(=O)c1O"
1400

Try the compound "O=C(O)c1nc(-c2cccc(OCc3ccccc3)c2)[nH]c(=O)c1O"
1000

Another compound to look at: "Cn1c(-c2cccc(O)c2)nc(C(=O)O)c(O)c1=O"
1000

###

target: RNA-directed RNA polymerase (Hepacivirus hominis); assay: Inhibitory concentration required to inhibit HCV RNA dependent RNA polymerase Nonstructural protein 5B in the presence of Mg2+ is determined
# reported IC50; entries follow
Write it as a number; the unit µM goes unstated.

Requested field: IC50. Item: "Cn1c(-c2cccc(O)c2)nc(C(=O)O)c(O)c1=O"
6

Another compound to look at: "O=C(O)c1nc(-c2cccc(O)c2)nc(O)c1O"
5.8

"O=C(O)c1nc(-c2ccc(Cl)cc2)[nH]c(=O)c1O" ?
29

Let us move to another entry and its IC50.
Suppose we examine the compound "O=C(O)c1nc(-c2cccc(OCc3ccccc3)c2)[nH]c(=O)c1O" ; what IC50 value has been reported?
15

###

target: RNA-directed RNA polymerase (Hepacivirus hominis, UniProt O39930); test: Inhibitory concentration required to inhibit HCV RNA dependent RNA polymerase Nonstructural protein 5B in the presence of Mn2+ is determined
Endpoint label: IC50 (µM)
Give the value, in units of µM, as a plain number.

Item: "O=C(O)c1nc(-c2cccc(O)c2)nc(O)c1O" Test system: RNA-directed RNA polymerase (Hepacivirus hominis, UniProt O39930) Read-out: IC50 Value: ?
0.6

Query "COC(=O)c1nc(-c2ccc(Cl)cc2)[nH]c(=O)c1O" next
30

// next item, IC50 requested
Form: Entry = "O=C(O)c1nc(-c2ccccc2)nc(O)c1O" | System = RNA-directed RNA polymerase (Hepacivirus hominis, UniProt O39930) | IC50 = ____
2.3

###

molecular target: RNA-directed RNA polymerase (Hepacivirus hominis, UniProt O39930); assay: Inhibitory concentration required to inhibit HCV RNA dependent RNA polymerase Nonstructural protein 5B in the presence of Mg2+ is determined
Endpoint label: IC50

Consider the compound "COC(=O)c1nc(-c2ccc(Cl)cc2)[nH]c(=O)c1O" and give its measured IC50.
> 100 µM

Another compound: "O=c1[nH]c(-c2cccc(O)c2)ncc1O"
> 50 µM

What do you have for "COc1c(C(=O)O)nc(-c2ccc(Cl)cc2)[nH]c1=O" ?
> 50 µM

Now examine the next entry.
Can you share its IC50? I mean this compound: "COc1nc(-c2cccc(O)c2)nc(C(=O)O)c1O"
> 50 µM
